- Test system: SF-295 CNS
- Test summary: NCI-60 one-dose screen, 48 h (100 = growth as untreated, 0 = no growth, -100 = all killed)
- Test conditions: 10 µM
This is part of a sample that, as a whole, favours compounds with a hit. Of some 83,000 tested, about 20% had one in any assay.
Provide the recorded growth for the entries that follow.
Report as a plain number; the unit % is understood.

Could you tell me which growth is on file for Fc1ccc2[nH]cc(-c3nc(-c4ccsc4)cs3)c2c1 ? 89.8

// query growth value for entry C=CCSC(CC)(CC)C(=O)NC 105

// returns reported growth for input CCN(CC)CCCC(C)Nc1c2ccc(Cl)cc2nc2ccc(OC)cc12 (stereo not given) 26.8

Would you kindly share the measured growth for O=C1/C=C/[C@@H](O)[C@@H]2C[C@@H](O)C[C@H]2/C=C/CCC[C@@H](C(F)(F)F)O1 ? 97.2

What does the record list as growth for COc1cc2cc(Oc3ccc(NC(=O)c4ccc(Cl)c(C(F)(F)F)c4)cc3)c(C)nc2cc1OC ? 7.81
